System: NIH3T3
Experiment: Cytotoxic Profiling of Annotated Libraries Using Quantitative High-Throughput Screening (AID 1296008); further: on the % scale 0 is the no-effect control and ±100 the full control effect; nearly all actives have a fitted effect of over 60% in size
Conditions: Five cell lines viability, CellTiter-Glo ATP luminescence, 48-72 h; hits give low values
Experimental: Cell-based phenotypic screening is a commonly used approach to discover biological pathways, novel drug targets, chemical probes and high-quality hit-to-lead molecules. […] A pintool (Kalypsys) was used to transfer 23 nL of compound solution to the 1536-well assay plates. […] Plates were left at room temperature for 10 min before imaging the ATP-coupled luminescence using a ViewLux microplate imager (PerkinElmer, Waltham, MA).
Records with an inconclusive call do not appear.
# maps each entry to its max response
The answer is to be given in %; state only the numeric part.

In the examples that follow, each entry is paired with its recorded max response.
CC[C@@H]([C@H](C)O)n1ncn(-c2ccc(N3CCN(c4ccc(OCC5CO[C@@](Cn6cncn6)(c6ccc(F)cc6F)C5)cc4)CC3)cc2)c1=O (some centres not stated)	-23.9
OC[C@H]1O[C@@H](OCCc2ccc(O)cc2)[C@H](O)[C@@H](O)[C@H]1O	2.07

So what's the measured max response for this one? N#Cc1c(N(CC(=O)O)CC(=O)O)sc(C(=O)O)c1CC(=O)O -3.52

So what's the measured max response for this one? CO[C@H]1C=CO[C@@]2(C)Oc3c(C)c(O)c4c(O)c(c(C=NN5CCN(C)CC5)c(O)c4c3C2=O)NC(=O)C(C)=CC=C[C@H](C)[C@H](O)[C@@H](C)[C@@H](O)[C@@H](C)[C@H](OC(C)=O)[C@H]1C -3.12

So what's the measured max response for this one? CC(C)c1c(C(=O)Nc2ccccc2)c(-c2ccccc2)c(-c2ccc(F)cc2)n1CC[C@H](O)C[C@@H](O)CC(=O)O -10.9

So what's the measured max response for this one? CO[C@H]1/C=C\O[C@@]2(C)Oc3c(C)c(O)c4c(O)c(c5c(nc6cc(C)ccn65)c4c3C2=O)NC(=O)C(C)=CC=C[C@H](C)[C@H](O)[C@@H](C)[C@@H](O)[C@@H](C)[C@H](OC(C)=O)[C@H]1C -4.51

So what's the measured max response for this one? CC(C)(CO)[C@@H](O)C(=O)NCCC(=O)O -2.4

So what's the measured max response for this one? Cn1c(=O)c(Oc2ccc(F)cc2F)cc2cnc(NC3CCOCC3)nc21 -13.2
